Assay: Selectivity index, ratio of CC50 for cytotoxicity against human MT4 cells to EC50 for antiviral activity against HIV1 IIIB infected in human MT4 cells
Type: toxicity, cell-based
Settings: read-out: Ratio CC50/EC50
endpoint_name: selectivity ratio

Some molecules with recorded selectivity ratio:
{"columns": ["smiles_notation", "selectivity ratio"],
 "data": [
  ["COc1ccc(N(C)C(=O)[C@H](Cc2cc(F)cc(F)c2)NC(=O)CN2CCN(S(=O)(=O)c3cccc(F)c3)CC2)cc1", "> 843"],
  ["COc1ccc(-n2c([C@H](Cc3cc(F)cc(F)c3)NC(=O)CN3CCN(S(=O)(=O)c4ccc(N)cc4)CC3)nc3cc(S(C)(=O)=O)ccc3c2=O)cc1", "> 236"],
  ["COc1ccc(N(C)C(=O)[C@H](Cc2ccccc2)NC(=O)CN2CCN(C(=O)c3ccc(NC(C)=O)cc3)CC2=O)cc1", "> 1.05"]
]}

The value of selectivity ratio measured for the molecule COc1ccc(-n2c(SCc3ncccn3)nnc2[C@H](Cc2ccccc2)NC(=O)Cc2c(C)[nH]c3ccccc23)cc1 turned out to be 58

====

For each record, write down the corresponding CLint scaled at 1 µM.
Test: Metabolic stability in human liver assessed as intrinsic clearance at 1 uM incubated for 60 mins in presence of NADPH by LC-MS/MS analysis
Format: ADME, tissue-based
Conditions: read-out: CLH
One number for each entry, in mL/min/kg.

{"columns": ["smiles_notation", "CLint scaled at 1 µM / mL/min/kg"],
 "data": [
  ["COc1ccc(N(C)C(=O)[C@H](Cc2ccccc2)NC(=O)CN2CCN(S(=O)(=O)c3ccc(N)cc3)CC2=O)cc1", 309]
]}

O=C(O)Cc1ccccc1Nc1c(Cl)cccc1Cl has a reported CLint scaled at 1 µM of 280

====

Assay: Selectivity ratio of EC50 for antiviral activity against HIV1 IIIB infected in human MT4 cells to EC50 for antiviral activity against HIV2 ROD infected in human MT4 cells
Format: toxicity, cell-based
Response field label: string, one of fulfilled (Ratio EC50 strictly below 1) or not fulfilled.

Use these answered entries as a reference point.
{"columns": ["smiles_notation", "class_name"],
 "data": [
  ["COc1ccc(N(C)C(=O)[C@H](Cc2cc(F)cc(F)c2)NC(=O)CN(Cc2ccc(C#N)cc2)C(=O)Cc2ccc(B3OC(C)(C)C(C)(C)O3)cc2)cc1", "not fulfilled"],
  ["COc1ccc(-n2c(SCCN3CCOCC3)nnc2[C@H](Cc2ccccc2)NC(=O)Cc2c(C)[nH]c3ccccc23)cc1", "fulfilled"],
  ["COC(=O)c1ccc(C(=O)Nc2ccn(CC(=O)N[C@@H](Cc3ccccc3)C(=O)N(C)c3ccc(OC)cc3)c(=O)c2)cc1", "not fulfilled"],
  ["COc1ccc(-n2c(SCCF)nnc2[C@H](Cc2ccccc2)NC(=O)Cc2c(C)[nH]c3ccccc23)cc1", "fulfilled"],
  ["COc1ccc(N(C)C(=O)[C@H](Cc2cc(F)cc(F)c2)NC(=O)CN2CCN(C(=O)Cc3c[nH]c4ccccc34)CC2=O)cc1", "not fulfilled"],
  ["COc1ccc(N(C)C(=O)[C@H](Cc2cc(F)cc(F)c2)NC(=O)CN2CCN(S(=O)(=O)c3ccccc3[N+](=O)[O-])CC2)cc1", "not fulfilled"],
  ["COc1ccc(N(C)C(=O)[C@H](Cc2cc(F)cc(F)c2)NC(=O)CN2CCN(C(=O)c3ccc(NS(C)(=O)=O)cc3)CC2=O)cc1", "fulfilled"],
  ["COc1ccc(-n2c(SCc3ccc(S(N)(=O)=O)cc3)nnc2[C@H](Cc2ccccc2)NC(=O)Cc2c(C)[nH]c3ccccc23)cc1", "fulfilled"],
  ["COc1ccc(N(C)C(=O)[C@H](Cc2cc(F)cc(F)c2)NC(=O)CN2CCN(S(=O)(=O)c3cccc(N)c3)CC2)cc1", "not fulfilled"],
  ["COc1ccc(-n2c([C@H](Cc3cc(F)cc(F)c3)NC(=O)CN3CCN(S(=O)(=O)c4ccc(N)cc4)CC3)nc3cc(S(C)(=O)=O)ccc3c2=O)cc1", "not fulfilled"]
]}

q: # TODO verify Ratio EC50 < 1 strictly for this molecule: COc1ccc(N(C)C(=O)[C@H](Cc2cc(F)cc(F)c2)NC(=O)CN2CCN(S(=O)(=O)c3cccc([N+](=O)[O-])c3)CC2)cc1
a: not fulfilled

q: Strictly below 1 in Ratio EC50? COc1ccc(N(C)C(=O)[C@H](Cc2ccccc2)NC(=O)Cn2ccc(NC(=O)c3ccc(F)cc3)cc2=O)cc1
a: not fulfilled

q: Problem: For the molecule COc1ccc(N(C)C(=O)[C@H](Cc2cc(F)cc(F)c2)NC(=O)Cn2ccc(N)cc2=O)cc1 , is Ratio EC50 under 1?
a: fulfilled

Origin of the recorded values: ChEMBL document CHEMBL5344428
